Attribution: the supplement of paper PMC10567573

assay: protein stability index of a GFP-peptide fusion (GPS, HEK-293T) (PSI 1-6); higher = more stable; settings: treatment: MLN4924 1 uM, 8 h; c terminus: a fixed tail appended;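 note: 24-mer peptide tiles fused after GFP, lentivirally expressed, FACS-sorted into six equal bins by GFP/DsRed ratio, decoded by Illumina sequencing, PSI is the read-weighted mean bin number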
Label True when protein stability index >= 3; otherwise False.

State whether the measured protein stability index reaches 3, counting equality as reaching it, for VKKSCWTEEEDRIICEAHKVLGNR [MYBL2]
True

Hi, just wondering whether YSKPGLSMRLLESKKGLSFFAFEH [TCF25] shows protein stability index of 3 or higher.
False

For this sequence, is measured protein stability index 3 or higher? LDKMLDPQVWREAATQVFFALGLG [SLC6A17]
False

In plain terms: is recorded protein stability index at least 3 for RTCTAPLDRLKVLMQVHASRSNNM [SLC25A25] ?
False

Does protein stability index meet or surpass 3 for HHSHSGPEISRIIVDPTTGKRYCR [PLK2] ?
True

Tell me whether protein stability index is at least 3 here: SRSNSRSRSYSPRRSRGSPRYSPR [SRSF1]
True

Test whether the sequence SRMKFRGNGALSNISDLPFLAENS [LCOR] records protein stability index of 3 or higher.
True

Determine whether this sequence has protein stability index no lower than 3: HLEYRFYKQLGSAGEGLPQVYYFG [CSNK1G1]
False

Is protein stability index at least 3? Consider TAGKVLAHFYGVKLEGKVPMHKLF [ESRRA]
False

----------
experiment: protein stability index of a GFP-peptide fusion (GPS, HEK-293T) (PSI 1-6); higher = more stable; conditions: treatment: DMSO; c terminus: a fixed tail appended
Cut-off 3 on protein stability index, inclusive. At or above means fulfilled; below means not fulfilled.

Entry QSCWAFLPDLCLCRVFWWLGDRDR [FBXO39] : is its protein stability index no less than 3?
not fulfilled

Does the sequence AWEPRSESQASRKEEGLPEEEPSH [ZNF8] have recorded protein stability index that is 3 or more?
fulfilled

Threshold query (protein stability index >= 3) on SVPIDLQKVDQFDPFTVPTISFIC [PRIM1]
not fulfilled

Entry GQTVTIWAANAGVTASPPTDLIWK [LMNB1] : is its protein stability index no less than 3?
not fulfilled

I'd appreciate it if you could say whether MACHRCLVYLGDLSRYQNELAGVD [SMG5] has protein stability index at least equal to 3.
not fulfilled

Decide: is the reported value of protein stability index for ELADHIERLKANDNLKFSQEYESI [PTPRD] equal to or greater than 3?
fulfilled

Threshold query (protein stability index >= 3) on SATALYRTDYSGRGELSARQMHLA [RAD51]
fulfilled

// inclusive: protein stability index at least 3? input: PLFSEDVVLKLFLSFSGSDVQNKL [SNX8]
not fulfilled

Hi team, for GLQLPSTLPVSGNLLDVYSSQGVA [TFE3] , is the recorded protein stability index at or above 3?
fulfilled

Could you tell me if the measured protein stability index of HYWELDVDNSCDWALGVCNNSWIR [TRIM43] reaches 3 or more?
not fulfilled

Determine whether measured protein stability index meets or exceeds 3 for STIGFKLPNHRAAKRLWKVCVEHH [EPB41L3]
not fulfilled

Does protein stability index meet or surpass 3 for IISSDELNVRSEEQVFNAVMAWVK [KLHL20] ?
not fulfilled

hey, is protein stability index for this one >= 3? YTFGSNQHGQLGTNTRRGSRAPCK [NEK8]
fulfilled

Does the sequence IGPIHLNEIQCTGNEKSIIDCKFN [LOXL2] have recorded protein stability index that is 3 or more?
fulfilled

// inclusive: protein stability index at least 3? input: LGVDTAETSYLEMAAGSEPESVEA [KMT2E]
fulfilled

Assess whether reported protein stability index for PEIEKADDHLQQPLQNQKILKRTG [ZNF649] sits at 3 or higher.
fulfilled

Hi, just wondering whether NNPISEHFHPTVIGESMYGDFEEA [TENT5C] shows protein stability index of 3 or higher.
fulfilled

Is protein stability index for EGHQAWIVGIVEKGNRTARIIDKP [SEPHS2] at or above 3?
not fulfilled

Entry YQVAALQGDLASLRAELQGHHAEK [TNFSF13B] : is its protein stability index no less than 3?
fulfilled

Has SEFRALQFSLMLCAFVGALGGAAF [SPNS1] a recorded protein stability index greater than or equal to 3?
fulfilled

For this sequence, is measured protein stability index 3 or higher? CHHGLVADSLQASMEKDATLNVDR [DLC1]
fulfilled

Exam item: decide whether the reported protein stability index for DAHFCAVCSDYASGYHYGVWSCEG [ESR2] is at least 3.
not fulfilled

State whether the measured protein stability index reaches 3, counting equality as reaching it, for CVARPGTPSLLRFALASLLQSAPD [ZSWIM9]
not fulfilled

API: above_or_equal(metric=protein stability index, cutoff=3) for item MEHQLLCCEVETIRRAYPDANLLN [CCND1]
not fulfilled

Given SGRRNWCSYVVTRTISCHVQNGTY [EMID1] , state whether its protein stability index is at least 3.
not fulfilled

Textbook exercise: given the entry PQFTGILQLLQSRTSRKFLACRLT [INTS3] , state whether its protein stability index is greater than or equal to 3.
not fulfilled

protein stability index >= 3 for PPPPMQPTVPSAATSQPTPSQHSA [CCDC6] ?
fulfilled

Form field: protein stability index at least 3? Entry: VIYCLGGYDGLNILNSVEKYDPHT [KLHL12]
not fulfilled

Hello, I need to know if TDLPECEQSSARQKASLLIQQALT [TCF25] has measured protein stability index not below 3. Thanks!
fulfilled

Textbook exercise: given the entry LCWDPVQRVLFSGSSDHSVIMWDI [WDFY2] , state whether its protein stability index is greater than or equal to 3.
not fulfilled

Does the reported protein stability index for MRHIRFLKNEVERLKKQLRAAQLQ [CCDC6] fall at or above the 3 mark?
not fulfilled

Textbook exercise: given the entry DAAEEEKYDMEVRVQKTSKELEDM [TNNI2] , state whether its protein stability index is greater than or equal to 3.
fulfilled

# bool: protein stability index of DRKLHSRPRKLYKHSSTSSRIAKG [BTBD10] >= 3
fulfilled

Check if protein stability index >= 3 (inclusive). Item: KYSLLKLTALLEKYTPSNKHGFSW [DLC1]
not fulfilled

protein stability index >= 3 for IRRPVNVPIDIFSEEIRFYQLGEE [KCNA3] ?
not fulfilled

I'd appreciate it if you could say whether AEALYQTKFQELQLAAGRHGDDLK [KRT71] has protein stability index at least equal to 3.
fulfilled

Can APAPAPEEWLDILGNGLLRKKTLV [FKBP8] be said to have protein stability index at or above 3?
fulfilled

Is protein stability index for TEDVGVVCSDKRIPGFKFDNSLIN [LOXL2] at or above 3?
fulfilled

Determine whether this sequence has protein stability index no lower than 3: EGCKSFFKRSVRRNLSYTCRANRN [NR2F2]
fulfilled

Determine whether measured protein stability index meets or exceeds 3 for PERLHAIKEQLIQEGLLDRCVSFQ [HDAC6]
not fulfilled

Test whether the sequence LEANADTSVEEESFGPQPISRLEQ [RAD51] records protein stability index of 3 or higher.
fulfilled

Confirm if protein stability index reported for the sequence EPPCEGNTFFCHSNMCINNTLVCN [NETO1] is 3 or above.
not fulfilled

Please check the record LPRKRQSLRSSSSKLAQLTLEQIL [INTS3] and state if its protein stability index is at or above 3.
not fulfilled

# bool: protein stability index of YTAQQDQELDIKKNERLWLLDDSK [NCK2] >= 3
fulfilled

Is protein stability index for SSVECYNLETNEWRYVSSLPQPLA [KLHL14] at or above 3?
not fulfilled

hey, is protein stability index for this one >= 3? VTSIHKYMVRRYFNKPSRVPAPEA [MYORG]
not fulfilled

Has DIISTVEFNHTGELLATGDKGGRV [PPP2R2B] a recorded protein stability index greater than or equal to 3?
fulfilled

Is protein stability index for VYHSYDLPWFRTLSWYFLLCVNYF [CDS1] at or above 3?
not fulfilled

Decide: protein stability index of SAGGSRTPAMSSSSSSRVLLRQQL [TFE3] >= 3?
fulfilled

Is reported protein stability index greater than or equal to 3 here: RRGWRPSSREDSLEAGLPLQVRGY [CHGA]
fulfilled
